targetOrSystem: alpha2A (h) (Homo sapiens, UniProt P08913)
Construct: host or cells: CHO cells
Sequence (P08913 1-465): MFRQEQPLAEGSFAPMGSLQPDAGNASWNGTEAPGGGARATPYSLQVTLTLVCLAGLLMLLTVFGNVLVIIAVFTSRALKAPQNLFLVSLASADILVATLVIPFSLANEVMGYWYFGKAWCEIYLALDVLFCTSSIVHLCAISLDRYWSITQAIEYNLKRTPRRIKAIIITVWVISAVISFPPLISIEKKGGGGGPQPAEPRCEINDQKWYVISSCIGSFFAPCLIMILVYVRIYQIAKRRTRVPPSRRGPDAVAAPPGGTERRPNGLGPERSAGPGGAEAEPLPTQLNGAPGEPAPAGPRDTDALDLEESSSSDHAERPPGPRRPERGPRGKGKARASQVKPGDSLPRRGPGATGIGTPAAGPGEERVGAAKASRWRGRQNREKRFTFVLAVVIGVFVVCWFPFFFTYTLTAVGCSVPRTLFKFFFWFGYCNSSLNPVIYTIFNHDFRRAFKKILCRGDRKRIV
testName: Competition assay to measure binding affinity at alpha2A receptor
experimentalContext: test ligand 10 μM; [3H]RX 821002 1 nM; read-out: α-2A, percent of control-specific binding
experimentalEndpoint: inhibition at 10 µM (%)

{"molecule": "O=c1n(CCCN2CCN(c3cccc(Cl)c3)CC2)nc2ccccn12 [Trazodone, reference compound]", "reportedValue": 91}
{"molecule": "CC(Cc1ccc2c(c1)OCCO2)NCc1ccc2c(c1)OCCO2 (stereo not shown)", "reportedValue": 77}
{"molecule": "COc1cc2c(cc1CNC(C)Cc1ccc3c(c1)OCO3)OCO2 (stereo not shown)", "reportedValue": 74}
{"molecule": "c1cc(CCN2CCCC2)c2c(c1)OCO2", "reportedValue": 57}
{"molecule": "CC(Cc1ccc2c(c1)OCCO2)NC1CCC1 (stereo not shown)", "reportedValue": 64}
{"molecule": "CC(Cc1ccc2c(c1)OCO2)N1CC(NC(=O)OC(C)(C)C)C1 (stereo not shown)", "reportedValue": 75}
{"molecule": "CC(Cc1ccc2c(c1)OCCO2)NCc1ccc2c(c1)OCO2 (stereo not shown)", "reportedValue": 66}
{"molecule": "CC(Cc1ccc2c(c1)OCO2)NCc1cc2c(cc1Br)OCO2 (stereo not shown)", "reportedValue": 74}
{"molecule": "CC(Cc1ccc2c(c1)OCO2)NN(C)C (stereo not shown)", "reportedValue": 8}
{"molecule": "COc1cc2c(cc1CCN1CCCC1)OCO2", "reportedValue": 54}
{"molecule": "COc1ccc2[nH]cc(CCNC(C)=O)c2c1 [Melatonin, reference compound]", "reportedValue": -7}
{"molecule": "OCCNCCc1cc2c(cc1Br)OCO2", "reportedValue": 6}
{"molecule": "O=C(Cc1c(Br)ccc2c1OCO2)N1CCCC1", "reportedValue": 0}
{"molecule": "CC(Cc1ccc2c(c1)OCO2)NC1CCC1 (stereo not shown)", "reportedValue": 35}
{"molecule": "NCCc1c[nH]c2ccc(O)cc12 [serotonin, reference compound]", "reportedValue": 18}
{"molecule": "COc1cc2c(cc1CC(=O)N1CCCC1)OCO2", "reportedValue": 0}
{"molecule": "CCCOc1c(OC)cc(CCN)cc1OC [proscaline, reference compound]", "reportedValue": 40}
{"molecule": "CN(C)CCCN1c2ccccc2CCc2ccccc21 [Imipramine, reference compound]", "reportedValue": 57}
{"molecule": "COc1cc2c(cc1CC(=O)NCCO)OCO2", "reportedValue": 0}
{"molecule": "O=C(Cc1cc2c(cc1Br)OCO2)NCCO", "reportedValue": 10}
{"molecule": "CC(Cc1ccc2c(c1)OCCO2)NCc1cc2c(cc1Br)OCO2 (stereo not shown)", "reportedValue": 82}
{"molecule": "N#CC(Cc1ccc2c(c1)OCO2)NC1CCC1 (stereo not shown)", "reportedValue": 3}
{"molecule": "COc1cc2c(cc1CCNCCO)OCO2", "reportedValue": 11}
{"molecule": "CC(C)(C)OC(=O)NC1CN(CCc2ccc3c(c2)OCO3)C1", "reportedValue": 6}
{"molecule": "FC1(F)Oc2ccc(CCN3CCCC3)cc2O1", "reportedValue": 26}
{"molecule": "COc1cc(CCN)cc(OC)c1OC", "reportedValue": 57}
{"molecule": "CON(C)C(C)Cc1ccc2c(c1)OCO2 (stereo not shown)", "reportedValue": 0}
{"molecule": "CC(Cc1ccc2c(c1)OCCO2)NCc1ccccc1 (stereo not shown)", "reportedValue": 60}
{"molecule": "O=C(Cc1ccc2c(c1)OC(F)(F)O2)N1CCCC1", "reportedValue": 0}
{"molecule": "Brc1cc2c(cc1CCN1CCCC1)OCO2", "reportedValue": 61}
{"molecule": "CC(NC(C)(C)C)C(=O)c1cccc(Cl)c1 (stereo not shown) [Bupropion, reference compound]", "reportedValue": 2}
{"molecule": "CC(Cc1ccc2c(c1)OCCO2)NCc1cc2c(cc1Br)OCCO2 (stereo not shown)", "reportedValue": 92}
{"molecule": "CC(Cc1ccc2c(c1)OCO2)N1CCOCC1 (stereo not shown)", "reportedValue": 32}
{"molecule": "COc1ccc2cccc(CCNC(C)=O)c2c1 [Agomelatine, reference compound]", "reportedValue": 2}
{"molecule": "CC(Cc1ccc2c(c1)OCCO2)N1CC(NC(=O)OC(C)(C)C)C1 (stereo not shown)", "reportedValue": 86}
{"molecule": "CC(Cc1ccc2c(c1)OCO2)N1CCC1 (stereo not shown)", "reportedValue": 60}
{"molecule": "COc1cc2c(cc1CNC(C)Cc1ccc3c(c1)OCCO3)OCO2 (stereo not shown)", "reportedValue": 81}
